The following compounds are shown together with reported inhibition values.
biological target: Autoinducer-2 kinase (Salmonella typhimurium (strain LT2 / SGSC1412 / ATCC 700720)) (UniProt Q8ZKQ6); experiment: Inhibition of Salmonella typhimurium LsrK expressed in Escherichia coli MET1158 at 200 uM using (S)-DPD as substrate after 15 mins by Kinase Glo luminescence assay relative to control; conditions: Salmonella enterica subsp. enterica serovar Typhimurium
Sequence (Q8ZKQ6 whole entry): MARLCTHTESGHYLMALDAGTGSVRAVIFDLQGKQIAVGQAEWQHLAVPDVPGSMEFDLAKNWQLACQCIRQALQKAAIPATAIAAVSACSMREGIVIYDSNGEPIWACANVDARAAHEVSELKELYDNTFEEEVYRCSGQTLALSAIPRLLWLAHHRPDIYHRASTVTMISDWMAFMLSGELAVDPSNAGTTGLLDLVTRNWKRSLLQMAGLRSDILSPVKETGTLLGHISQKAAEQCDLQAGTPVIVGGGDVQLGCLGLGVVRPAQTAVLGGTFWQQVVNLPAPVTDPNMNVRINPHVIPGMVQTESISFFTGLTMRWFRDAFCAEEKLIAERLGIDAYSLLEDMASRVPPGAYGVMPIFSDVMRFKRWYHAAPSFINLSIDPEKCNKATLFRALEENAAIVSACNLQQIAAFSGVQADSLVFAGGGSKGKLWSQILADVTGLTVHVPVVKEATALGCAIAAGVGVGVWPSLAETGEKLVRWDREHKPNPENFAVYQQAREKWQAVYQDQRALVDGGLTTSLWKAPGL
Remember to quote the unit after the number.

CC(C)n1nc(-c2ccccc2)cc1C1COC2(CCCCC2)O1 (stereo not drawn)
0%
OCC(O)c1cc2ccccc2cn1 (stereo not drawn)
0.48%
Cn1nc(-c2ccccc2)cc1C1COC2(CCCCCC2)O1 (stereo not drawn)
0%

Given Cn1nc(C2CC2)cc1C1COC2(CCCCC2)O1 (stereo not drawn) , state its recorded inhibition.
0%

Hey, just so you know, these numbers are from ChEMBL document CHEMBL4400549.
